pIC50: −log10 of the molar value.
Please find below pIC50 measurements for UniProtKB P29597, combined from several publications.

CCC(Cn1ccc2cnc(Nc3cnn(CC(=O)OCC(O)CO)c3)nc21)C(C)C (stereo not shown) : > 7.00
CC(C)C[C@H](C)n1cc(-c2nc(-c3cnn(C[C@H](O)CO)c3)cn3nccc23)cn1 : 6.00 to 7.00
FC(F)(F)CCNCc1n[nH]c2c1CN(c1ncnc3[nH]ccc13)CC2 : 6.30 to 7.00

pIC50 recorded for this molecule, Cc1cnc(Nc2ccc3c(c2)CN(C)C3)nc1N1CC(CC#N)(N2CCN3C[C@H](F)C[C@H]3C2)C1 , is > 8.00

pIC50 recorded for this molecule, Cc1ccc(C(F)(F)F)cc1-c1[nH]c(-c2ncnc3[nH]ccc23)cc1C(N)=O , is 7.14

pIC50 recorded for this molecule, Cc1cc(Nc2ncc(C)c(N3CC(CC#N)(NCc4cccc(Cl)c4)C3)n2)sn1 , is > 8.00

pIC50 recorded for this molecule, O=C1NCCCCOCc2cc(ccc2Br)Nc2nccc(n2)-c2ccc1cc2[N+](=O)[O-] , is < 5.00

pIC50 recorded for this molecule, Cc1nn(C)cc1S(=O)(=O)N1CC(CCF)(n2cc(-c3nc(-c4cnn(C)c4)cc4nccn34)cn2)C1 , is 6.00 to 7.00

pIC50 recorded for this molecule, C=CC(=O)Nc1cc(Nc2ncc(Cl)c(O[C@@H]3CO[C@H]4[C@@H]3OC[C@H]4O)n2)ccc1N1CCC2(CCN(C)CC2)CC1 , is 6.63

pIC50 recorded for this molecule, O[C@H]1CC[C@@H](Nc2c(-c3ncco3)cnc3[nH]ccc23)C1 , is 6.00 to 7.00

pIC50 recorded for this molecule, C[C@H]1CCOCc2cc(ccc2OC2CC2)Nc2nccc(n2)-c2ccc(cc2N)C(=O)NC1 , is 5.00 to 6.00

----------
pIC50: −log10 of the molar value.
Please find below pIC50 measurements for Non-receptor tyrosine-protein kinase TYK2 (Homo sapiens), combined from several publications.

// worked examples, pIC50 included
Cn1cc(-c2cc3nccn3c(-c3cnn(C4(CC#N)CC5(CCCC5)C4)c3)n2)cn1 : > 8.00
Cc1cnc(Nc2cnn(C)c2)nc1N1CC(C)(NC(=O)c2cccc(F)c2)C1 : > 7.00
Cn1cc(-c2cc3nccn3c(-c3cnn(C4(CC#N)CN(CC5CC5)C4)c3)n2)cn1 : > 8.00

# input for lookup
Record CC(C)CNc1nc(Nc2ccc3c(c2)NC[C@H](O)CO3)ncc1C(N)=O has Non-receptor tyrosine-protein kinase TYK2 (Homo sapiens) pIC50 equal to > 8.00

----------
pIC50: −log10 of the molar value.
Please find below pIC50 measurements for Non-receptor tyrosine-protein kinase TYK2 (Homo sapiens, UniProt P29597), combined from several publications.

Cc1cc(Nc2ncc(C)c(N3CC(CC#N)(N4C5CC4CN(C)C5)C3)n2)sn1 : > 6.40
CS(=O)(=O)C(CCNC(=O)c1noc2c1CN(c1ncnc3[nH]ccc13)CC2)C(F)(F)F (stereo not shown) : < 5.70
Nc1cc2ccc1-c1ccnc(n1)Nc1ccc(OCC3Cc4ccccc4O3)c(c1)COCCCCNC2=O (stereo not shown) : 5.00 to 6.00

# input for lookup
pIC50 recorded for this compound, CC[C@H](CC(F)(F)F)n1cc(-c2nc(-c3cnn(C(CO)CO)c3)cn3nccc23)cn1 , is 7.00 to 8.00

----------
Please find below IC50 measurements for Non-receptor tyrosine-protein kinase TYK2 (Homo sapiens), combined from several publications.

Cn1cc(-c2cc3nccn3c(-c3ccn(C4(CC#N)CN(CC(F)(F)F)C4)n3)n2)ccc1=O : < 0.01 µM
CCc1ccc(Cl)cc1-n1cc(-c2ncnc3[nH]ccc23)cc1C#N : 0.012 µM
Cn1cc(-c2cc3nccn3c(-c3cnn(C4(CC#N)CN(C5COC5)C4)c3)n2)cn1 : 0.01 to 0.1 µM
C=CC(=O)Nc1cc(Nc2ncc(Cl)c(O[C@@H]3CO[C@H]4[C@@H]3OC[C@@H]4F)n2)ccc1N1CCN(CC)CC1 : 0.912 µM
CO[C@H](C)Cn1cc(-c2cc3nccn3c(-c3cnn(C4(CCF)CN(S(=O)(=O)C(F)(F)F)C4)c3)n2)cn1 : < 0.01 µM

Record CSCCC(C1CC1)n1cc(-c2nc(-c3cnn(C)c3)cc3nccn23)cn1 (stereo not shown) has Non-receptor tyrosine-protein kinase TYK2 (Homo sapiens) IC50 equal to 0.01 to 0.1 µM

Record CNC(=O)c1n[nH]c2cc(-c3cc(F)c(O)cc3CC(F)(F)F)nc(NCc3cc(C)ccc3N(C)S(C)(=O)=O)c12 has Non-receptor tyrosine-protein kinase TYK2 (Homo sapiens) IC50 equal to 0.229 µM

Record CC(C)Cn1cc(-c2cc3nccn3c(-c3cnn(C(CC#N)C4CC4)c3)n2)cn1 (stereo not shown) has Non-receptor tyrosine-protein kinase TYK2 (Homo sapiens) IC50 equal to 0.01 to 0.1 µM

----------
Please find below IC50 measurements for UniProtKB P29597, combined from several publications.

// worked examples, IC50 included
CCOC(=O)Cn1cc(Nc2ncc3ccn(CC4CCCCCC4)c3n2)cn1 : < 100 nM
CCOC(=O)CC1(n2cc(-c3nc(-c4cnn(C)c4)cc4nccn34)cn2)CN(S(=O)(=O)C(F)(F)F)C1 : 100 to 1000 nM

IC50 recorded for this compound, Cn1cc(-c2cc3nccn3c(-c3cnn(C4(CC#N)CN(CC(F)F)C4)c3)n2)cn1 , is < 10 nM

IC50 recorded for this compound, CN(c1ncnc2[nH]ccc12)[C@H]1CN(S(=O)(=O)c2cccc(C#N)c2)CC12CC2 , is 24.7 nM

IC50 recorded for this compound, Cc1cc(Nc2nc(N[C@@H]3C[C@H]4CC[C@@H](C3)N4C(=O)CN(C)C)nc3ccccc23)n[nH]1 , is 0.94 nM

IC50 recorded for this compound, O=C(NCCS(=O)(=O)N1CCCCC1)c1noc2c1CN(c1ncnc3[nH]ccc13)CC2 , is > 2000 nM

IC50 recorded for this compound, CCC(CC)n1cc(-c2nc(-c3cnn(CC(O)C(C)C)c3)cn3nccc23)cn1 (centres unmarked) , is 10 to 100 nM

IC50 recorded for this compound, CCC(CC)Cn1ccc2cnc(Nc3cnn(CC(=O)O)c3)nc21 , is < 100 nM

----------
Please find below pIC50 measurements for Non-receptor tyrosine-protein kinase TYK2 (Homo sapiens, UniProt P29597), combined from several publications.
pIC50: −log10 of the molar value.

CC(C)N1CC(CC#N)(n2cc(-c3nc(-c4cnn(C)c4)cc4nccn34)cn2)C1 : 7.00 to 8.00
Cn1cc(-c2cc3nccn3c(-c3cnn(C4(CC#N)CCN(CC(F)(F)F)CC4)c3)n2)cn1 : 7.00 to 8.00
CN(c1ncnc2[nH]ccc12)[C@H]1C[C@@H](NS(=O)(=O)CCCO)C1 : 5.50
CCC(CC)n1cc(-c2nc(-c3cnn(C[C@H](O)COC)c3)cn3nccc23)cn1 : 7.00 to 8.00
Cc1ccc2cc1COCCCCNC(=O)c1ccc(c(F)c1)-c1ccnc(n1)N2 : 5.00 to 6.00
CC[C@H](Cn1ccc2cnc(Nc3cnn(C4CC(C)(C)OC4=O)c3)nc21)C(C)C (some centres unmarked) : > 7.00
Cc1cc(Nc2nc(N[C@@H]3C[C@@H]4CN(CCC#N)C[C@@H]4C3)nc3ccsc23)n[nH]1 : 9.25

# input for lookup
Record Cc1ccc(-c2cnc3[nH]ccc3c2N[C@@H]2CCCN(C(=O)CC#N)C2)nc1 has Non-receptor tyrosine-protein kinase TYK2 (Homo sapiens, UniProt P29597) pIC50 equal to 7.00 to 8.00

----------
pIC50: −log10 of the molar value.
Please find below pIC50 measurements for Non-receptor tyrosine-protein kinase TYK2 (Homo sapiens), combined from several publications.

CCc1cc(O)c(F)cc1-c1cc2[nH]ncc2c(N(CC)Cc2cc(C)ccc2N(C)S(C)(=O)=O)n1 : 5.33

Record O=C(NCC1CC(F)(F)C1)c1noc2c1CN(c1ncnc3[nH]ccc13)CC2 has Non-receptor tyrosine-protein kinase TYK2 (Homo sapiens) pIC50 equal to < 5.70

Record CNC(=O)c1n[nH]c2cc(-c3cc(F)c(O)cc3CC(F)(F)F)nc(NCc3ccccc3N(C)S(=O)(=O)c3ccc(C)nc3)c12 has Non-receptor tyrosine-protein kinase TYK2 (Homo sapiens) pIC50 equal to 7.18

Record NC(=O)c1cnc(Nc2ccc3c(c2)NCC(O)CO3)nc1Nc1cccc2sccc12 (stereo not drawn) has Non-receptor tyrosine-protein kinase TYK2 (Homo sapiens) pIC50 equal to > 8.00

Record O=C1NCCCCOCc2cc(cc(N3CCOCC3)c2)Nc2ncc(Cl)c(n2)-c2ccc1cc2F has Non-receptor tyrosine-protein kinase TYK2 (Homo sapiens) pIC50 equal to 5.00 to 6.00

Record O=C1NCCCCCc2cc(ccc2N2CCOCC2)Nc2nccc(n2)-c2ccc1cc2 has Non-receptor tyrosine-protein kinase TYK2 (Homo sapiens) pIC50 equal to 6.00 to 7.00

Record CCc1cc(O)c(F)cc1-c1cc2[nH]nc(-c3nc(C)c(C)[nH]3)c2c(NCc2ccccc2N(C)S(C)(=O)=O)n1 has Non-receptor tyrosine-protein kinase TYK2 (Homo sapiens) pIC50 equal to 7.48

Record CCC(CC)n1cc(-c2nc(-c3cnn(C[C@H]4C[C@@H](O)C4)c3)cn3nccc23)cn1 has Non-receptor tyrosine-protein kinase TYK2 (Homo sapiens) pIC50 equal to 7.00 to 8.00
